assay: Cmax in Sprague-Dawley rat at 50 mg/kg, po; assay type: ADME, organism-based; parameters: dose 50 mg/kg, route oral; conditions: in vivo

record_smiles: O=C(COc1ccc(/C=C2\SC(=O)NC2=O)cc1)Nc1cccc(Cl)c1
measurement_unit: µM
Cmax: 15.3

====

target: Nitric oxide synthase, inducible (Mus musculus) (UniProt P29477); experiment: Inhibition of iNOS-mediated nitric oxide production in LPS-stimulated mouse RAW 264.7 cells treated 2 hrs before LPS challenge measured after 18 hrs by Griess reaction method relative to control; type: cell-based; set-up: concentration or dose not given beside the values; conditions: concentration not given here
Sequence (P29477 whole entry): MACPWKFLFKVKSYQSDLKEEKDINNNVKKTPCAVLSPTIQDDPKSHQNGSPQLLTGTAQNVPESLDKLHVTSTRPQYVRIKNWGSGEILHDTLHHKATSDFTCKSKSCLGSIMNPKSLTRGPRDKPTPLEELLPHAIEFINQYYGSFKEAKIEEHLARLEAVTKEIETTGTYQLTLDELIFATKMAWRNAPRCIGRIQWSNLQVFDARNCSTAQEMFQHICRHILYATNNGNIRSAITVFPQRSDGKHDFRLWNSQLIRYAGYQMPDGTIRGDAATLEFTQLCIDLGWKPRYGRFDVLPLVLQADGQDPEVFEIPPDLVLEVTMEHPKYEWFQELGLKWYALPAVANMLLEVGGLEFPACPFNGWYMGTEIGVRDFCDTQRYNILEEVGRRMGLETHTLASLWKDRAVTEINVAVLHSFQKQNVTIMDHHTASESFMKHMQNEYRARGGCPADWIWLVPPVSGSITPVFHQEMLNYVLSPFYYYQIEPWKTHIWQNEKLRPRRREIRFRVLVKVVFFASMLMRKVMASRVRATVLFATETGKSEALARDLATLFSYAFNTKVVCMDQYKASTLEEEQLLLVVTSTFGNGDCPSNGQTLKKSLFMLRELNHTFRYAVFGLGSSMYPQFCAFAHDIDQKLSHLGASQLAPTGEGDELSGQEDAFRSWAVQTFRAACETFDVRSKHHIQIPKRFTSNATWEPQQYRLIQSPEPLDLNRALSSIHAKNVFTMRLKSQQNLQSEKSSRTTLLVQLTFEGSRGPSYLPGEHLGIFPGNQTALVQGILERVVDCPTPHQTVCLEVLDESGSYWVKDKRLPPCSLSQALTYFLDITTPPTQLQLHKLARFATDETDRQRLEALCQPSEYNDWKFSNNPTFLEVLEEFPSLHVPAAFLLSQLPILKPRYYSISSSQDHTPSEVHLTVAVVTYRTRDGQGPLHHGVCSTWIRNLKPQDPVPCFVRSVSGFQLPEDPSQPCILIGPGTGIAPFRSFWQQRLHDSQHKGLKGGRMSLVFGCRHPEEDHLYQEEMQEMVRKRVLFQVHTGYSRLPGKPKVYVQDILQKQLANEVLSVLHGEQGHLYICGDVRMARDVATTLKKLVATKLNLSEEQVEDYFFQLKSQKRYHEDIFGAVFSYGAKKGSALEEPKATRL

record_smiles: O=C(COc1ccc(/C=C2\SC(=O)NC2=O)cc1)Nc1ccc(C(F)(F)F)cc1
inhibition (%): 26.6

record_smiles: Cc1ccc(NC(=O)COc2ccc(/C=C3\SC(=O)NC3=O)cc2)cc1
inhibition (%): 38.4

record_smiles: O=C(COc1ccc(/C=C2\SC(=O)NC2=O)cc1)Nc1cccc(Cl)c1
inhibition (%): 80.9

record_smiles: O=C(COc1ccc(/C=C2\SC(=O)NC2=O)cc1)Nc1ccccn1
inhibition (%): 14.6

record_smiles: COc1ccc(NC(=O)COc2ccc(/C=C3\SC(=O)NC3=O)cc2)cc1OC
inhibition (%): 16.2

record_smiles: Cc1ccc(NC(=O)COc2ccc(/C=C3\SC(=O)NC3=O)cc2)nc1
inhibition (%): 12.5

record_smiles: O=C(COc1ccc(/C=C2\SC(=O)NC2=O)cc1)Nc1ccc(Cl)cc1Cl
inhibition (%): 10

record_smiles: O=C(COc1ccc(/C=C2\SC(=O)NC2=O)cc1)Nc1ccc(F)c(Cl)c1
inhibition (%): 36

record_smiles: O=C(COc1ccc(/C=C2\SC(=O)NC2=O)cc1)NCc1ccccc1
inhibition (%): 41.6

record_smiles: COc1ccc(NC(=O)COc2ccc(/C=C3\SC(=O)NC3=O)cc2)cc1
inhibition (%): 0.6
